assayed.system: Transcriptional coactivator YAP1 (Homo sapiens)
method.summary: Inhibition of YAP1 in human A549 cells assessed as disruption in YAP1/OCT4 co-localization at 25 uM incubated for 48 hrs by double immunofluorescence based assay
Type: cell-based
Active and inactive are the calls of the source. No cut-off for these calls is given here.
quantity.name: inhibition

[[record]]
item_smiles = "Oc1ccccc1/N=C/c1c(O)ccc2ccccc12"
quantity_name = "inhibition"
meas_value = "Active"

[[record]]
item_smiles = "COc1cc2c(cc1OC)[N+]([O-])=C(c1ccccc1)C2=O"
quantity_name = "inhibition"
meas_value = "Active"

[[record]]
item_smiles = "COCCn1c2nc(=O)n(-c3ccccc3)c(=O)c-2nc2ccccc21"
quantity_name = "inhibition"
meas_value = "Active"

[[record]]
item_smiles = "O=[N+]([O-])c1[nH]cnc1/C=C/c1ccccc1"
quantity_name = "inhibition"
meas_value = "Active"


* * *

Assignment: determine reported inhibition for the given compounds.
assayed.system: Transcriptional coactivator YAP1 (Homo sapiens)
method.summary: Inhibition of YAP1 (unknown origin) assessed as disruption in YAP1/OCT4 interaction at 5 uM by ELISA relative to control
Numbers only, in %.

Dear reader, for each entry below, please note its inhibition.
1. O=C(CC1CCN(C(=O)CCc2ccccc2)CC1)N[C@@H](Cc1ccc(OCc2ccccc2)cc1)C(=O)NC1CCCCC1
2. CC(C)(C)OC(=O)N1CCC(CC(=O)N[C@@H](Cc2ccc(OCc3ccccc3)cc2)C(=O)O)CC1

Resp:
1: 90; 2: 75

* * *

assayed.system: Transcriptional coactivator YAP1 (Homo sapiens)
method.summary: Inhibition of YAP1 (unknown origin) assessed as disruption in YAP1/OCT4 interaction at 5 uM by ELISA relative to control
quantity.name: inhibition (%)
Answers are plain numbers, in %.

Check out these entries, answers already filled in.
[[record]]
item_smiles = "COC(=O)[C@H](Cc1ccc(OCc2ccccc2)cc1)NC(=O)CC1CCN(C(=O)OC(C)(C)C)CC1"
quantity_name = "inhibition"
meas_value = 72.6

[[record]]
item_smiles = "O=C(CC1CCN(C(=O)CCc2ccccc2)CC1)N[C@@H](Cc1ccc(OCc2ccccc2)cc1)C(=O)O"
quantity_name = "inhibition"
meas_value = 95


// moving on: another record for inhibition
Req: Note inhibition for the compound shown: `O=C(CC1CCN(C(=O)CCc2ccccc2)CC1)N[C@@H](Cc1ccc(OCc2ccccc2)cc1)C(=O)NC1CC1`
Resp: 90

* * *

System: NCI-H1703
method.summary: Effect on expression of Nanog mRNA expression in human NCI-H1703 cells at 5 to 10 uM incubated for 72 hrs by RT-PCR method
Format: cell-based
measurement.conditions: nci-h1703, 72 h
quantity.name: Activity

Check out these entries, answers already filled in.
[[record]]
item_smiles = "O=[N+]([O-])c1nc[nH]c1/C=C/c1cccc(F)c1"
quantity_name = "Activity"
meas_value = "Non-Toxic"

[[record]]
item_smiles = "COC(=O)[C@H](Cc1ccc(OCc2ccccc2)cc1)NC(=O)CC1CCN(C(=O)CCc2ccc(Cl)c(Cl)c2)CC1"
quantity_name = "Activity"
meas_value = "Non-Toxic"

[[record]]
item_smiles = "COC(=O)[C@H](Cc1ccc(OCc2ccccc2)cc1)NC(=O)CC1CCN(C(=O)CCCc2ccccc2)CC1"
quantity_name = "Activity"
meas_value = "Non-Toxic"

[[record]]
item_smiles = "O=C(CC1CCN(C(=O)CCc2ccccc2)CC1)N[C@@H](Cc1ccc(OCc2ccccc2)cc1)C(=O)O"
quantity_name = "Activity"
meas_value = "Non-Toxic"


// moving on: another record for Activity
Req: Note Activity for the compound shown: `COC(=O)[C@H](Cc1ccc(OCc2ccccc2)cc1)NC(=O)CC1CCN(C(=O)CCc2ccc(C#N)cc2)CC1`
Resp: Non-Toxic

* * *

method.summary: Lipophilicity, logP of the compound
Assay type: physicochemical
measurement.conditions: octanol/water
quantity.name: logP
Numbers only.

Req: Note logP for the molecule shown: `COC(=O)[C@H](Cc1ccc(OCc2ccccc2)cc1)NC(=O)CC1CCN(C(=O)CCc2ccccc2)CC1`
Resp: 4.7

* * *

Test system: NCI-H146
method.summary: Effect on expression of Nanog mRNA expression in human NCI-H146 cells at 5 to 10 uM incubated for 72 hrs by RT-PCR method
Assay type: cell-based
measurement.conditions: nci-h146, 72 h
quantity.name: Activity

Check out these entries, answers already filled in.
[[record]]
item_smiles = "O=C(CC1CCN(C(=O)CCc2ccccc2)CC1)N[C@@H](Cc1ccc(OCc2ccccc2)cc1)C(=O)O"
assayed_system = "NCI-H146"
quantity_name = "Activity"
meas_value = "Non-Toxic"

[[record]]
item_smiles = "O=[N+]([O-])c1nc[nH]c1/C=C/c1cccc(F)c1"
assayed_system = "NCI-H146"
quantity_name = "Activity"
meas_value = "Non-Toxic"

[[record]]
item_smiles = "COC(=O)[C@H](Cc1ccc(OCc2ccccc2)cc1)NC(=O)CC1CCN(C(=O)CCc2ccc(Cl)c(Cl)c2)CC1"
assayed_system = "NCI-H146"
quantity_name = "Activity"
meas_value = "Non-Toxic"

[[record]]
item_smiles = "COC(=O)[C@H](Cc1ccc(OCc2ccccc2)cc1)NC(=O)CC1CCN(C(=O)CCc2ccc(C#N)cc2)CC1"
assayed_system = "NCI-H146"
quantity_name = "Activity"
meas_value = "Non-Toxic"


// moving on: another record for Activity
Req: Note Activity for the compound shown: `COC(=O)[C@H](Cc1ccc(OCc2ccccc2)cc1)NC(=O)CC1CCN(C(=O)CCCc2ccccc2)CC1`
Resp: Non-Toxic

* * *

System: NCI-H1650
method.summary: Effect on expression of Oct4 mRNA expression in human NCI-H1650 cells at 5 to 10 uM incubated for 72 hrs by RT-PCR method
Format: cell-based
measurement.conditions: nci-h1650, 72 h
quantity.name: Activity

[[record]]
item_smiles = "COC(=O)[C@H](Cc1ccc(OCc2ccccc2)cc1)NC(=O)CC1CCN(C(=O)CCc2ccc(C#N)cc2)CC1"
meas_value = "Non-Toxic"

[[record]]
item_smiles = "O=[N+]([O-])c1nc[nH]c1/C=C/c1cccc(F)c1"
meas_value = "Non-Toxic"

[[record]]
item_smiles = "COC(=O)[C@H](Cc1ccc(OCc2ccccc2)cc1)NC(=O)CC1CCN(C(=O)CCc2ccc(Cl)c(Cl)c2)CC1"
meas_value = "Non-Toxic"

[[record]]
item_smiles = "COC(=O)[C@H](Cc1ccc(OCc2ccccc2)cc1)NC(=O)CC1CCN(C(=O)CCCc2ccccc2)CC1"
meas_value = "Non-Toxic"


Req: Note Activity for the compound shown: `O=C(CC1CCN(C(=O)CCc2ccccc2)CC1)N[C@@H](Cc1ccc(OCc2ccccc2)cc1)C(=O)O`
Resp: Non-Toxic

* * *

assayed.system: UniProt P46937
Sequence (P46937 whole entry): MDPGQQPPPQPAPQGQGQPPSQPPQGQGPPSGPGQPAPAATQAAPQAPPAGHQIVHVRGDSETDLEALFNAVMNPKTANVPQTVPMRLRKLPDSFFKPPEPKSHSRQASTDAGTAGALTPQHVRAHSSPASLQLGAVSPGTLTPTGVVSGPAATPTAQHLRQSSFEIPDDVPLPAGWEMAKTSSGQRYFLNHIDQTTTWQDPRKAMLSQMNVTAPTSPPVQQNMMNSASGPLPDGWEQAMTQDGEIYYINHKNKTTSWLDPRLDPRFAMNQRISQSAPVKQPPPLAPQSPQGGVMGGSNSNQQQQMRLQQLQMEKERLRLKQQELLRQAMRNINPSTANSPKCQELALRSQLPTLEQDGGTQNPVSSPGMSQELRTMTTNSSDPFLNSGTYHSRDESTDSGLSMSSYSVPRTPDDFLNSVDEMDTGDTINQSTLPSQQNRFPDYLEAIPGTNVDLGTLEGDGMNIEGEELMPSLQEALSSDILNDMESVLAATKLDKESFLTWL
method.summary: Inhibition of YAP1 in human NCI-H1703 cells assessed as suppression of fibronectin mRNA expression at 5 to 10 uM incubated for 72 hrs by RT-PCR method
Assay type: cell-based
Activity calls are given as the source filed them. The calls are words filed in the database; no cut-off is given here.
quantity.name: inhibition

Check out these entries, answers already filled in.
[[record]]
item_smiles = "O=[N+]([O-])c1nc[nH]c1/C=C/c1cccc(F)c1"
quantity_name = "inhibition"
meas_value = "Active"

[[record]]
item_smiles = "COC(=O)[C@H](Cc1ccc(OCc2ccccc2)cc1)NC(=O)CC1CCN(C(=O)CCc2ccc(Cl)c(Cl)c2)CC1"
quantity_name = "inhibition"
meas_value = "Active"

[[record]]
item_smiles = "COC(=O)[C@H](Cc1ccc(OCc2ccccc2)cc1)NC(=O)CC1CCN(C(=O)CCc2ccc(C#N)cc2)CC1"
quantity_name = "inhibition"
meas_value = "Active"

[[record]]
item_smiles = "O=C(CC1CCN(C(=O)CCc2ccccc2)CC1)N[C@@H](Cc1ccc(OCc2ccccc2)cc1)C(=O)O"
quantity_name = "inhibition"
meas_value = "Active"


// moving on: another record for inhibition
Req: Note inhibition for the compound shown: `COC(=O)[C@H](Cc1ccc(OCc2ccccc2)cc1)NC(=O)CC1CCN(C(=O)CCCc2ccccc2)CC1`
Resp: Active

* * *

System: NCI-H1650
method.summary: Inhibition of adherence-independent cell growth in human NCI-H1650 cells at 5 uM incubated for 33 days
Format: functional, cell-based
Calls of active or inactive are those of the source. No cut-off for these calls is given here.
quantity.name: inhibition

[[record]]
item_smiles = "COC(=O)[C@H](Cc1ccc(OCc2ccccc2)cc1)NC(=O)CC1CCN(C(=O)CCCc2ccccc2)CC1"
assayed_system = "NCI-H1650"
meas_value = "Active"

[[record]]
item_smiles = "COC(=O)[C@H](Cc1ccc(OCc2ccccc2)cc1)NC(=O)CC1CCN(C(=O)c2ccc(NC(=O)OC(C)(C)C)cc2)CC1"
assayed_system = "NCI-H1650"
meas_value = "Active"

[[record]]
item_smiles = "COC(=O)[C@H](Cc1ccc(OCc2ccccc2)cc1)NC(=O)CC1CCN(C(=O)CCc2ccc(C#N)cc2)CC1"
assayed_system = "NCI-H1650"
meas_value = "Active"

[[record]]
item_smiles = "COC(=O)[C@H](Cc1ccc(OCc2ccccc2)cc1)NC(=O)CC1CCN(C(=O)CCc2ccc(Cl)c(Cl)c2)CC1"
assayed_system = "NCI-H1650"
meas_value = "Active"


// moving on: another record for inhibition
Req: Note inhibition for the compound shown: `O=[N+]([O-])c1nc[nH]c1/C=C/c1cccc(F)c1`
Resp: Active
